This listing pairs binders with measured Kd.
Target: T1, IRF-3 2D (UniProt Q14653 1-427, S396D;S398D)
T1 sequence: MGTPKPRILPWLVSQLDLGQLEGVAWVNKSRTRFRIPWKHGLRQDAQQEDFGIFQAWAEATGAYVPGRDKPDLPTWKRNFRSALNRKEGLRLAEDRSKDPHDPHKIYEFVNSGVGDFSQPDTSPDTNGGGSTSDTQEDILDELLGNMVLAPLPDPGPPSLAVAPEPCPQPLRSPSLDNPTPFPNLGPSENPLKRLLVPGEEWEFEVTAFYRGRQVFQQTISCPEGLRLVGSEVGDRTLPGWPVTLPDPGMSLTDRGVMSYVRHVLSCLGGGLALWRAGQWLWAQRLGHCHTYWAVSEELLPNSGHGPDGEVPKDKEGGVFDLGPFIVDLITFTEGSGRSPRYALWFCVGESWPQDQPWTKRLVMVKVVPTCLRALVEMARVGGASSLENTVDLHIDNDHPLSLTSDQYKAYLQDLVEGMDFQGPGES
Assay: fluorescence anisotropy
State just the number; it will be interpreted in µM.

Report Kd for PRDIII-PRDI 26-bp (dsDNA) DNA 1: GCGAACTGAAAGGGAGAAGTGAAAGT DNA 2: ACTTTCACTTCTCCCTTTCAGTTCGC please.
1.3

Kindly review the next binder as well.
Given the entry PRDI 13-bp (dsDNA) DNA 1: GAGAAGTGAAAGT DNA 2: ACTTTCACTTCTC , report its measured Kd.
0.9
